- target.of.assay: T1, human transferrin receptor (hTfR) (human, UniProt P02786 89-760, limits assumed)
- T1 construct: hTfR solution immobilised on NTA chip (Ni capture plus EDC/NHS); also called human TfR
- protocol.summary: SPR in accordance with Example 2
reported.property: pKd
pKd is a log-scale quantity: -log10 of the concentration expressed in molar.

The recorded pKd for entry AVFVWNYYIIRRYYC (14 MeTyr; C-term PEG11-K(FITC); cyclic 1-15 thioether) [JCR_hTfR_000894_PEG11_K(FITC)] equals 9.55

Ref: patent US20230203098A1
